assayed.target: BTK C481S protein (Homo sapiens (Human), UniProt Q06187, C481S)
Sequence (Q06187 2-659 C481S): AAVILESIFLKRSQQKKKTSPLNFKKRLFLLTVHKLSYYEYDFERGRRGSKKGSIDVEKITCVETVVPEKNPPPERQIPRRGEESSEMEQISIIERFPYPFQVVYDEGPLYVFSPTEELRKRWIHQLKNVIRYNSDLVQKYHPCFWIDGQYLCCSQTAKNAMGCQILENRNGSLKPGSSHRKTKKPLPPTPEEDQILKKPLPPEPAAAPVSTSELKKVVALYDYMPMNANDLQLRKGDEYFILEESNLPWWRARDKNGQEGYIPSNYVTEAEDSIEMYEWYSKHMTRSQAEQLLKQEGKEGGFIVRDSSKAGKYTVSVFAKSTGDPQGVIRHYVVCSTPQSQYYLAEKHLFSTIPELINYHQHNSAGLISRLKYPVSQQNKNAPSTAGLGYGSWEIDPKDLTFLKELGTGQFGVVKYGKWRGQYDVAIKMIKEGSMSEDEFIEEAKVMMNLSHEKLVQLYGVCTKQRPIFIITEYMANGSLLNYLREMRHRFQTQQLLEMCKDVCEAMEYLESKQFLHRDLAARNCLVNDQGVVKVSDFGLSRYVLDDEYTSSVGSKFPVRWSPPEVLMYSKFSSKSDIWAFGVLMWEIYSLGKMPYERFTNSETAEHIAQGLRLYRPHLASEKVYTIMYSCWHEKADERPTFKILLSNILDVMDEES
assay.procedure: BTK C481S HTRF displacement assay
stated.conditions: 1-hour incubation
recorded.endpoint: IC50

>>> print(df.to_string())
                                   compound  recorded_result
0  COc1ccc(F)cc1C(=O)NCc1ccc(-c2nn(C[C@@H]3CCCC[C@H]3CN(C)C(=O)n3cncn3)c3ncnc(N)c23)cc1 [Compound 130]        ≤ 1000 nM

For the compound CC1(C)CC(n2nc(-c3ccc(Oc4ccccc4)cc3)c3c(N)ncnc32)CCN1C(=O)n1cncn1 (stereo not shown) [Compound 148] , report IC50.
≤ 1000 nM

For the compound CN(C(=O)n1cncn1)[C@@H]1CCCC[C@H](n2nc(-c3ccc(Oc4ccccc4)cc3)c(C(N)=O)c2N)C1 [Compound 182] , report IC50.
≤ 1000 nM

---

assayed.target: BTK C481S protein (Homo sapiens (Human), UniProt Q06187, C481S)
assay.procedure: BTK C481S HTRF displacement assay
stated.conditions: 1-hour incubation
recorded.endpoint: IC50

In the examples that follow, each entry is paired with its recorded IC50.
                                   molecule  recorded_result
0  CN(C(=O)n1cncn1)C1CCC(C2CCNc3c(C(N)=O)c(-c4ccc(Oc5ccccc5)cc4)nn32)C1 (centres unmarked)           ≤ 1 µM
1  COc1ccc(F)cc1C(=O)NCc1ccc(-c2nn(C(CCCN(C)C(=O)n3cncn3)N(C)C)c3ncnc(N)c23)cc1 (centres unmarked)           > 1 µM
2  COc1ccc(F)cc1C(=O)NCc1ccc(-c2nn(C3CCCN(C(=O)n4cncn4)C3)c(N)c2C(N)=O)cc1 (centres unmarked)           ≤ 1 µM
3  COCC(CN(C)C(=O)n1cncn1)n1nc(-c2ccc(CNC(=O)c3cc(F)ccc3OC)cc2)c2c(N)ncnc21 (centres unmarked)           > 1 µM
4  COc1ccc(F)cc1C(=O)NCc1ccc(-c2nn(CC3CCCCN(C(=O)n4cncn4)C3)c(N)c2C(N)=O)cc1 (centres unmarked)           ≤ 1 µM
5  NC(=O)c1c(-c2ccc(Oc3ccccc3)cc2)nn2c1NCC[C@H]2[C@H]1CCCCN1C(=O)n1cncn1           ≤ 1 µM

For the molecule CN(CCC1CNc2c(C(N)=O)c(-c3ccc(Oc4ccccc4)cc3)nn2C1)C(=O)n1cncn1 (centres unmarked) , report IC50.
≤ 1 µM

For the molecule CC(CN(C)C(=O)n1cncn1)C1CCNc2c(C(N)=O)c(-c3ccc(Oc4ccccc4)cc3)nn21 (centres unmarked) , report IC50.
≤ 1 µM

For the molecule CN(CC1CNc2c(C(N)=O)c(-c3ccc(Oc4ccccc4)cc3)nn2C1)C(=O)n1cncn1 (centres unmarked) , report IC50.
> 1 µM

For the molecule COc1ccc(F)cc1C(=O)NCc1ccc(-c2nn(C3CCCCC(N(C)C(=O)n4cncn4)C3)c3ncnc(N)c23)cc1 (centres unmarked) , report IC50.
≤ 1 µM

---

assayed.target: BTK C481S protein (Homo sapiens (Human), UniProt Q06187, C481S)
assay.procedure: BTK C481S HTRF displacement assay
stated.conditions: 1-hour incubation
Form field: IC50 (one value per entry).

In the examples that follow, each entry is paired with its recorded IC50.
                                   compound  recorded_result
0  COc1ccc(C)cc1C(=O)NCc1ccc(-c2nn(C3CCCC(N(C)C(=O)n4cncn4)C3)c3ncnc(N)c23)cc1 (stereo not shown)        ≤ 1000 nM
1  COc1ccc(C)cc1C(=O)NCc1ccc(-c2nn(C3CCCC(N(C)C(=O)n4cnnn4)C3)c3ncnc(N)c23)cc1 (stereo not shown)        ≤ 1000 nM
2  CN(C(=O)n1cncn1)C1CCC(C2CCNc3c(C(N)=O)c(-c4ccc(Oc5ccccc5)cc4)nn32)CC1 (stereo not shown)        ≤ 1000 nM

Below: the item to evaluate.
For the compound COc1ccc(F)cc1C(=O)NCc1ccc(-c2nn(C(CC3CCCCC3)CN(C)C(=O)n3cncn3)c3ncnc(N)c23)cc1 (stereo not shown) , report IC50.
> 1000 nM

All figures here come from patent US20240294531A1.
